biological target: β-secretase(BACE) (Homo sapiens, UniProt P56817); construct: purchased Panvera; assay: BACE Assay-1 (MCA-substrate, IC50); assay type: biochemical; conditions: procedure of Example 158; read-out: IC50 μM (158)
Sequence (P56817 46-501): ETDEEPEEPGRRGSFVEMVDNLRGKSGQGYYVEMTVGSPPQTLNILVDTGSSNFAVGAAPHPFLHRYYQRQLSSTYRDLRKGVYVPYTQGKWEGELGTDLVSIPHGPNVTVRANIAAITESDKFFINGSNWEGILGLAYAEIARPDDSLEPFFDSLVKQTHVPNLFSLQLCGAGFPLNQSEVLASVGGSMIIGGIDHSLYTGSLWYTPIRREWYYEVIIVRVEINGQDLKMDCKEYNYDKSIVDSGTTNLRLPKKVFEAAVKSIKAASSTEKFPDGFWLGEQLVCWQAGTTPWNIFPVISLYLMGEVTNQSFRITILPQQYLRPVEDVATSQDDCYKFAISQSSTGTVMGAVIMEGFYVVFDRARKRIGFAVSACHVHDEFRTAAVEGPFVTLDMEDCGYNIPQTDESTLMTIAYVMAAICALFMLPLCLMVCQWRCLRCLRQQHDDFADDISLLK
Provide the recorded IC50 for the entries that follow.
Numbers only, in µM.

- compound: "COc1ccc(C(CCC(=O)N(C)C2CCCCC2)N2Cc3cc(Oc4ccccc4)ccc3N=C2N)cc1 (stereo not shown) [Compound 298]"
  outcome_measure: "IC50"
  numeric_readout: 0.22
- compound: "CCCCC(CC)C(=O)NCCN1Cc2cc(Oc3ccccc3)ccc2N=C1N (stereo not shown) [Compound 122]"
  outcome_measure: "IC50"
  numeric_readout: 0.19

Okay, now this compound:
Exercise: // IC50 lookup, key: CN(C(=O)c1cccc(CN2Cc3cc(-c4ccccc4Br)ccc3N=C2N)c1)C1CCCCC1 [Compound 331]
Key: 0.089

---

target: β-secretase(BACE) (Homo sapiens); construct: purchased Panvera; experiment: BACE FS1% Inhibition Assay; type: biochemical; details: 1 μM test compound; FS1 substrate; read-out: % Inhibition (FS)
Provide the recorded inhibition at 1 µM for the entries that follow.

- molecule: "CN(C(=O)c1cccc(CN2Cc3cc(Br)ccc3N=C2N)c1)C1CCCCC1"
  target_or_system: "β-secretase(BACE) (Homo sapiens)"
  inhibition at 1 µM: "< 30%"
- molecule: "Cc1ccccc1-c1ccc2c(c1)CN(CCNC(=O)C1CCOCC1)C(N)=N2"
  target_or_system: "β-secretase(BACE) (Homo sapiens)"
  inhibition at 1 µM: "83%"
- molecule: "CN(C(=O)CC(c1ccccc1)N1Cc2cc(F)ccc2N=C1N)C1CCCCC1 (stereo not shown)"
  target_or_system: "β-secretase(BACE) (Homo sapiens)"
  inhibition at 1 µM: "< 30%"

Okay, now this molecule:
Exercise: Notebook: pull reported inhibition at 1 µM for β-secretase(BACE) (Homo sapiens), entry `NC1=Nc2ccc(Oc3ccccc3)cc2CN1[C@@H](CCC(=O)N(CCOCc1ccccc1)[C@H]1CC[C@@H](C(=O)O)CC1)C1CCOCC1`
Key: 112%

---

target: β-secretase(BACE) (Homo sapiens, UniProt P56817); construct: purchased Panvera; experiment: BACE FS1% Inhibition Assay; format: biochemical; settings: 1 μM test compound; FS1 substrate; read-out: % Inhibition (FS)
outcome_measure: inhibition at 1 µM (%)
Answers are plain numbers, in %.

These recorded examples may help you get a feel for the data.
- substance_smiles: "COC(=O)[C@@H](COCc1ccccc1)N(C)C(=O)CC[C@@H](C1CCCCC1)N1Cc2cc(Oc3ccccc3)ccc2N=C1N"
  target_or_system: "β-secretase(BACE) (Homo sapiens, UniProt P56817)"
  inhibition at 1 µM, %: 107
- substance_smiles: "CN(CCC#N)C(=O)CC[C@@H](C1CCCCC1)N1Cc2cc(-c3ccccc3F)ccc2N=C1N"
  target_or_system: "β-secretase(BACE) (Homo sapiens, UniProt P56817)"
  inhibition at 1 µM, %: 74
- substance_smiles: "NC1=Nc2ccc(Oc3ccccc3)cc2CN1[C@@H](CCC(=O)N(CCO)[C@H]1CC[C@@H](C(=O)O)CC1)C1CCOCC1"
  target_or_system: "β-secretase(BACE) (Homo sapiens, UniProt P56817)"
  inhibition at 1 µM, %: 114
- substance_smiles: "CN(C(=O)CC[C@@H](C1CCCCC1)N1Cc2cc(Oc3ccccc3)ccc2N=C1N)[C@H]1CC[C@H](C(=O)O)CC1"
  target_or_system: "β-secretase(BACE) (Homo sapiens, UniProt P56817)"
  inhibition at 1 µM, %: 98

Okay, now this compound:
Exercise: // inhibition at 1 µM lookup, key: `NC1=Nc2ccc(Oc3ccccc3)cc2CN1[C@@H](CCC(=O)N[C@@H](COCc1ccccc1)C(=O)O)C1CCOCC1`
Key: 107

---

biological target: β-secretase(BACE) (Homo sapiens, UniProt P56817); construct: purchased Panvera; experiment: BACE FS1% Inhibition Assay; type: biochemical; details: 3 μM test compound; FS1 substrate
outcome_measure: % Inhibition (FS) 3 μM (%)
Give bare numbers, in %.

- molecule: "CCC(c1cccc(C(=O)N(C)C2CCCCC2)c1)N1Cc2cc(-c3ccccc3OC)ccc2N=C1N (racemic) [Compound 395]"
  numeric_readout: 118
- molecule: "COc1ccc(-c2ccc3c(c2)CN(C(CCC(=O)N(C)C2CCCCC2)C2CCCCC2)C(N)=N3)cc1 (racemic) [Compound 226]"
  numeric_readout: 54
- molecule: "COc1cccc(Nc2ccc3c(c2)CN(Cc2cccc(C(=O)N(C)C4CCCCC4)c2)C(N)=N3)c1 [Compound 433]"
  numeric_readout: 88

Exercise: Notebook: pull reported % Inhibition (FS) 3 μM for β-secretase(BACE) (Homo sapiens, UniProt P56817), entry CCCc1cccc(C)c1Oc1ccc2c(c1)CN(Cc1cccc(C(=O)N(C)C3CCCCC3)c1)C(N)=N2 [Compound 482]
Key: 43

---

Provide the recorded % Inhibition (FS) 1 μM for the entries that follow.
molecular target: β-secretase(BACE) (Homo sapiens, UniProt P56817); construct: purchased Panvera; assay: BACE FS1% Inhibition Assay; type: biochemical; conditions: 1 μM test compound; FS1 substrate

- compound: "CN(C(=O)c1cccc(CN2Cc3cc(Sc4ccc5ccccc5c4)ccc3N=C2N)c1)C1CCCCC1"
  % Inhibition (FS) 1 μM: "<30%"
- compound: "CCC[C@H](CNC(=O)CCC(C)C)N1Cc2cc(Oc3ccccc3)ccc2N=C1N"
  % Inhibition (FS) 1 μM: "114%"
- compound: "CN(C(=O)c1cccc(CN2Cc3cc(-c4ccccc4Oc4ccccc4)ccc3N=C2N)c1)C1CCCCC1"
  % Inhibition (FS) 1 μM: "35%"

For every record below, what is its % Inhibition (FS) 1 μM?
1. CC(C)C(CC(=O)NC1C2CC3CC(C2)CC1C3)N1Cc2cc(Oc3ccccc3)ccc2N=C1N (stereo not shown)
2. CN1CCC(N(C)C(=O)c2cccc(CN3Cc4cc(Oc5ccccc5)ccc4N=C3N)c2)CC1

Key:
["53%", "<30%"]

For every record below, what is its % Inhibition (FS) 1 μM?
1. COc1ccc(Nc2ccc3c(c2)CN(Cc2cccc(C(=O)N(C)C4CCCCC4)c2)C(N)=N3)cc1
2. CC(C)C(CC(=O)NC1CCCCC1)N1Cc2cc(Oc3ccccc3)ccc2N=C1N (stereo not shown)
3. CCCC=Cc1ccc2c(c1)CN(CCNC(=O)C1CCCCC1)C(N)=N2
4. Cc1cc(C)cc(Sc2ccc3c(c2)CN(Cc2cccc(C(=O)N(C)C4CCCCC4)c2)C(N)=N3)c1
5. CC(C)Oc1ccccc1Oc1ccc2c(c1)CN(Cc1cccc(C(=O)N(C)C3CCCCC3)c1)C(N)=N2
6. NC1=Nc2ccc(Oc3ccccc3)cc2CN1CC1CCN(C(=O)C2CCCCC2)CC1
7. CSc1ccccc1-c1ccc2c(c1)CN(Cc1cccc(C(=O)N(C)C3CCCCC3)c1)C(N)=N2
8. CCCC(=O)NCCN1Cc2cc(-c3ccccc3Cl)ccc2N=C1N

Key:
1. <30%
2. <30%
3. <30%
4. <30%
5. <30%
6. <30%
7. <30%
8. 63%

---

target: β-secretase(BACE) (Homo sapiens, UniProt P56817); construct: purchased Panvera; experiment: BACE FS1% Inhibition Assay; type: biochemical; settings: 1 μM test compound; FS1 substrate; read-out: % Inhibition (FS) 1 μM
Category key, based on recorded inhibition at 1 µM: low (below 70%), mid (70% to below 90%), high (90% or more)

See these solved cases before continuing.
- molecule: "CCC(c1cccc(C(=O)N(C2CCCCC2)C2CCCCC2)c1)N1Cc2cc(Oc3ccccc3)ccc2N=C1N (centres unmarked)"
  group: "low"
- molecule: "NC1=Nc2ccc(Oc3ccccc3)cc2CN1C(CC(=O)NC1CC2CCC1C2)C1CCCCC1 (centres unmarked)"
  group: "low"
- molecule: "CN(CCN1Cc2cc(Oc3ccccc3)ccc2N=C1N)C(=O)OC(C)(C)C"
  group: "mid"
- molecule: "Cc1cccc(-c2ccc3c(c2)CN(CCNC(=O)C2CCCCC2)C(N)=N3)c1"
  group: "mid"

Exercise: Please classify: `C[C@H](CNC(=O)C1CCCCC1)N1Cc2cc(Oc3ccccc3)ccc2N=C1N`
Key: mid

Exercise: Please classify: CC1CCCCC1NC(=O)CCN1Cc2cc(Oc3ccccc3)ccc2N=C1N (centres unmarked)
Key: mid

Exercise: Please classify: `CN(CCCN1Cc2cc(Oc3ccccc3)ccc2N=C1N)C1CCCCC1`
Key: low

Exercise: Please classify: `CC(C)CC(=O)NC[C@@H](C(C)C)N1Cc2cc(Oc3ccccc3)ccc2N=C1N`
Key: high

Exercise: Please classify: `CN(C(=O)c1cccc(CN2Cc3cc(-c4ccccc4CC#N)ccc3N=C2N)c1)C1CCCCC1`
Key: mid

Exercise: Please classify: `Cc1ccccc1-c1ccc2c(c1)CN(CCNC(=O)C1CCCC1)C(N)=N2`
Key: high

Exercise: Please classify: `CN(C(=O)c1cccc(CN2Cc3cc(-c4ccsc4)ccc3N=C2N)c1)C1CCCCC1`
Key: high

Exercise: Please classify: `NC1=Nc2ccc(Oc3ccccc3)cc2CN1C[C@H](NC(=O)C1CCCCC1)C1CCCCC1`
Key: low

Exercise: Please classify: `CC(C)CCC(=O)NCCN1Cc2cc(-c3ccccc3Cl)ccc2N=C1N`
Key: high

Exercise: Please classify: `COc1ccccc1-c1ccc2c(c1)CN(CCNC(=O)C1CCCCC1)C(N)=N2`
Key: low

Data provenance: patent US8383637B2
